- targetEntity: BRM (Homo sapiens, UniProt P51531)
- Construct: made in house; host or cells: High Five insect cells
- Sequence (P51531 whole entry): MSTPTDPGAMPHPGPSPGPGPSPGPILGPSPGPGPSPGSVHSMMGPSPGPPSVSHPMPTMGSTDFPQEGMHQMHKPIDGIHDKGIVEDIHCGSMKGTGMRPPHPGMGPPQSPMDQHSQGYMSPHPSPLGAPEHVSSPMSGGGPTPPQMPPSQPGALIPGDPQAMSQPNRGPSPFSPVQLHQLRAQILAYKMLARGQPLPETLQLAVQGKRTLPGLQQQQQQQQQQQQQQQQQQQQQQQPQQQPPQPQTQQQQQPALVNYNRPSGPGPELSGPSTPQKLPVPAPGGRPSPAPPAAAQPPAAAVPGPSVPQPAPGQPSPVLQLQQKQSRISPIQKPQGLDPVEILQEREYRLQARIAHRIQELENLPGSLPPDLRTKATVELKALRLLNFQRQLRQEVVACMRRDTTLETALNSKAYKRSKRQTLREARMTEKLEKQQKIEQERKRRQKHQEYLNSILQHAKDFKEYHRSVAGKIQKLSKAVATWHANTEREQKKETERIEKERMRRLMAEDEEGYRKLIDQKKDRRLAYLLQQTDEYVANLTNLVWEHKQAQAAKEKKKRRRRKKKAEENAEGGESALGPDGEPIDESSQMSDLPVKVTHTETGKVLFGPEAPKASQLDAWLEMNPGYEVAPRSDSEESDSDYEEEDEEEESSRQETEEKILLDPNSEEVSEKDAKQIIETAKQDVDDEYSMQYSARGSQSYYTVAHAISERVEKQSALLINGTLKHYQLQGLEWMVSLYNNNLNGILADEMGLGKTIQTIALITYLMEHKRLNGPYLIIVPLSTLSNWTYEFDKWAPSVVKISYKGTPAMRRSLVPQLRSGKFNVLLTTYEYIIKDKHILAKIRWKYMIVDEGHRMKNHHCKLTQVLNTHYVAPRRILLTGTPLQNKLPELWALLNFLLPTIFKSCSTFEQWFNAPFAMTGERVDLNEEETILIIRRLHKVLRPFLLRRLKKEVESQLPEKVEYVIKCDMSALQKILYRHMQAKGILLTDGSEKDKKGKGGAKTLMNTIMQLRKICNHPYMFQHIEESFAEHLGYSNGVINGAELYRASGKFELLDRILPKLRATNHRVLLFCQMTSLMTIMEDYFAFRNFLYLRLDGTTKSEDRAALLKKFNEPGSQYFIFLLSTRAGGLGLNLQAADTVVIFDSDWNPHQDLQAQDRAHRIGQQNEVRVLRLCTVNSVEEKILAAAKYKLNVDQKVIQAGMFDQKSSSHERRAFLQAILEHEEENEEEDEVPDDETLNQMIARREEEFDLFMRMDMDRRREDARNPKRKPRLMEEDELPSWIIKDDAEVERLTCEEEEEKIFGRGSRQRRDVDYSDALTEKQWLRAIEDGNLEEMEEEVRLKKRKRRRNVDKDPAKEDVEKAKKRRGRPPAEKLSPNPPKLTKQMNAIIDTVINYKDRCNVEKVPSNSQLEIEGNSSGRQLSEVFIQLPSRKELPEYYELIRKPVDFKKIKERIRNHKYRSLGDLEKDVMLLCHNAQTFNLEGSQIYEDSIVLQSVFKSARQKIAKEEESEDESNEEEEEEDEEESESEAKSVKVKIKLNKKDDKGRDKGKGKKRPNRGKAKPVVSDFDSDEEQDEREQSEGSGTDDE
- method: ATPase catalytic activity of BRM, ADP-Glo in vitro biochemical assay
- particulars: ATPase catalytic activity, ADP-Glo; 30 nM BRM, 400 μM ATP
pIC50: −log10 of the molar value.
Overview of recorded pIC50 for various compounds
recordedMetric: pIC50

[[record]]
chemicalsmiles = "O=C(NCc1cc2nc(-c3cccc4c3OCC[C@H]4OC3COC3)ccc2cn1)c1ccc2c(c1)S(=O)(=O)CCOC2"
targetentity = "BRM (Homo sapiens, UniProt P51531)"
recordedmetric = "pIC50"
reading = 7.78

[[record]]
chemicalsmiles = "CO[C@@H](C)c1ccc2c(n1)N(c1ccc3cnc(CNC(=O)c4ccc5c(c4)S(=O)(=O)CCOC5)cc3n1)CCC2"
targetentity = "BRM (Homo sapiens, UniProt P51531)"
recordedmetric = "pIC50"
reading = 7.17

[[record]]
chemicalsmiles = "O=C(NCc1cc2nc(N3CCCc4cc(C5CC5)cnc43)ccc2cn1)c1ccc2c(c1)S(=O)(=O)CCOC2"
targetentity = "BRM (Homo sapiens, UniProt P51531)"
recordedmetric = "pIC50"
reading = 8.24

[[record]]
chemicalsmiles = "C[C@@H]1CN(c2cccc(-c3ccc4cnc(CNC(=O)c5cc(Cl)c6c(c5)S(=O)(=O)[C@H](C)COC6)cc4n3)n2)C[C@H](C)O1"
targetentity = "BRM (Homo sapiens, UniProt P51531)"
recordedmetric = "pIC50"
reading = 5.83

[[record]]
chemicalsmiles = "O=C(NCc1cc2nc(-c3cccc(C4CC4)n3)ccc2nn1)c1cc(F)c2c(c1)S(=O)(=O)CCOC2"
targetentity = "BRM (Homo sapiens, UniProt P51531)"
recordedmetric = "pIC50"
reading = 7.96

